// data source = paper PMC9948199

Assay: Blood, tumor and tissue concentration after last dose in the tumor model
Format: in vivo, Balb/c nude mice
Conditions: female, Balb/c nude (Nu/Nu), mouse, whole blood, ip, 10 mg/kg
READOUT_TYPE: concentration at 8 h (µg/mL)
Numbers only; they are read as µg/mL.

The molecule identified as C#Cc1c(F)ccc2cc(O)cc(-c3ncc4c(N5CC6CCC(C5)N6)nc(OC[C@@]56CCCN5C[C@H](F)C6)nc4c3F)c12 registered its concentration at 8 h at 0.33

###

Test: Blood, tumor and tissue concentration after last dose in the tumor model
Type: in vivo, Balb/c nude mice
Settings: female, Balb/c nude (Nu/Nu), mouse, brain, ip, 10 mg/kg
READOUT_TYPE: concentration at 2 h

Looking up C#Cc1c(F)ccc2cc(O)cc(-c3ncc4c(N5CC6CCC(C5)N6)nc(OC[C@@]56CCCN5C[C@H](F)C6)nc4c3F)c12 , I found its concentration at 2 h recorded as 131 ng/g

###

Assay: Caco-2 permeability assay
Format: in vitro ADME
Settings: human, Caco-2, Caco-2 permeability efflux ratio, Table 1
READOUT_TYPE: efflux ratio

The measured efflux ratio associated with C#Cc1c(F)ccc2cc(O)cc(-c3ncc4c(N5CC6CCC(C5)N6)nc(OC[C@@]56CCCN5C[C@H](F)C6)nc4c3F)c12 reads > 16.8

###

Test: Blood, tumor and tissue concentration after last dose in the tumor model
Type: in vivo, Balb/c nude mice
Details: female, Balb/c nude (Nu/Nu), mouse, brain, ip, 10 mg/kg
READOUT_TYPE: concentration at 8 h (ng/g)
Use ng/g as the unit, but write only the number.

Notebook: C#Cc1c(F)ccc2cc(O)cc(-c3ncc4c(N5CC6CCC(C5)N6)nc(OC[C@@]56CCCN5C[C@H](F)C6)nc4c3F)c12 , concentration at 8 h read as 139

###

Experiment: Caco-2 permeability assay
Type: in vitro ADME
Details: human, Caco-2, Caco-2 permeability Papp A – B, Table 1
READOUT_TYPE: Papp A→B

Consider C#Cc1c(F)ccc2cc(O)cc(-c3ncc4c(N5CC6CCC(C5)N6)nc(OC[C@@]56CCCN5C[C@H](F)C6)nc4c3F)c12 . Its measured Papp A→B is < 0.48 ×10⁻⁶ cm/s
